Please respond with reported Population Normal (%) for every item in the list.
- Test system: HEK-293T
- Experiment notes: Multiplex assay against HEK293T
- Type: toxicity, cell-based
- Setup conditions: human, 24 h, 10 µM, compound concentration 10 uM, replicate 2
Answers are plain numbers, in %.

Compound	Population Normal (%)
COC(c1ccccc1)(c1ccccc1)[C@H](Oc1nc(C)cc(C)n1)C(=O)O [AMBRISENTAN]	87
CCCCCCNC(=O)Nc1ccc(S(=O)(=O)Nc2ccc(CCNC[C@H](O)COc3ccc(O)cc3)cc2)cc1 [L-755507]	90
S=C(NCCCc1c[nH]cn1)NCCCN(Cc1ccc(Cl)c(Cl)c1)c1ccc(Br)cn1	61

Provide only the value of recorded Population Normal (%) for Cc1cc(=O)n(C)c2cc(N3C(=O)CC[C@H](NS(=O)(=O)CC(C)C)[C@H]3c3ccc(Cl)cc3)ccc12
77

====

- Tested on: U2OS
- Experiment notes: Multiplex assay against U2OS
- Format: toxicity, cell-based
- Setup conditions: human, 24 h, 10 µM, compound concentration 10 uM, replicate 2
Quantity kind: Total Cell Count
Numbers only.

Some molecules with known Total Cell Count results, for comparison:
Molecule	Value reported
O=C(O)CCC/C=C\CC1C(O)CC(O)C1/C=C/C(O)COc1cccc(Cl)c1 (configuration not stated)	177
Nc1nc(CC(=O)Nc2ccc(CCNC[C@H](O)c3ccccc3)cc2)cs1	167
CN1C[C@H](C(=O)N[C@]2(C)O[C@@]3(O)[C@@H]4CCCN4C(=O)[C@H](Cc4ccccc4)N3C2=O)C[C@@H]2c3cccc4[nH]cc(c34)C[C@H]21.CS(=O)(=O)O [DIHYDROERGOTAMINE MESYLATE]	163
Cc1cc(=O)n(C)c2cc(N3C(=O)CC[C@H](NS(=O)(=O)CC(C)C)[C@H]3c3ccc(Cl)cc3)ccc12	108
Cl.Cl.OCCOCCN1CCN(C(c2ccccc2)c2ccc(Cl)cc2)CC1 (configuration not stated) [HYDROXYZINE HYDROCHLORIDE]	168

// for each molecule below, give its Total Cell Count
1. Cc1cc(-c2ccc3c(c2)CC[C@H]3N2CC3(CCN(C(=O)Cc4cn5cc(C)sc5n4)CC3)C2)ncn1
2. CN(C)C(=O)Cn1cc(-c2ccc(-c3nnc4ccccn34)cc2)cn1

1: 154; 2: 180

====

Give Total Cell Count for every item shown.
- System: Fibroblast
- Experiment notes: Multiplex assay against human fibroblast
- Type: toxicity, cell-based
- Setup conditions: 48 h, 10 µM, compound concentration 10 uM, replicate 1
Answers are plain numbers.

Solved entries (count: 4):
Smiles entry	Total Cell Count
O=c1nc2[nH]c3ccccc3nc-2c(=O)[nH]1	164
Cc1cc(O)c(-c2ccc([C@@H](C)CN(C)C)cc2)c2c1[nH]c(=O)c1sccc12	117
COc1ccc2[nH]c(I)c(CCNC(C)=O)c2c1	159
CN1CCN(c2ccc(Nc3c4ccccc4nc4ccccc34)cc2)CC1.Cl.Cl.O	235

Give one value of Total Cell Count per listed compound.
1. O=c1ccc2ccc(OCCCCN3CCN(c4cccc5sccc45)CC3)cc2[nH]1
2. COc1cc(OC2CCN(C(C)=O)CC2)ccc1C(=O)N1CCC(N2C(=O)OCc3ccccc32)CC1
3. Cc1sc2c(c1C)C(c1ccc(Cl)cc1)=N[C@H](CC(=O)OC(C)(C)C)c1nnc(C)n1-2
4. Cc1cc(NC(=O)NCCN2CCC(O)(Cc3ccccc3)CC2)c2ccccc2n1

1: 208; 2: 155; 3: 134; 4: 186

Retrieve Total Cell Count on Fibroblast; query CSc1nc(NC2CCCC2)c([N+](=O)[O-])c(NC2CCCC2)n1
168
